Molecular target: T1, human IFNAR-1 protein (form not stated) (human, UniProt P17181 28-436, limits assumed)
T1 construct: bispecific ELISA
T1 sequence (looked up): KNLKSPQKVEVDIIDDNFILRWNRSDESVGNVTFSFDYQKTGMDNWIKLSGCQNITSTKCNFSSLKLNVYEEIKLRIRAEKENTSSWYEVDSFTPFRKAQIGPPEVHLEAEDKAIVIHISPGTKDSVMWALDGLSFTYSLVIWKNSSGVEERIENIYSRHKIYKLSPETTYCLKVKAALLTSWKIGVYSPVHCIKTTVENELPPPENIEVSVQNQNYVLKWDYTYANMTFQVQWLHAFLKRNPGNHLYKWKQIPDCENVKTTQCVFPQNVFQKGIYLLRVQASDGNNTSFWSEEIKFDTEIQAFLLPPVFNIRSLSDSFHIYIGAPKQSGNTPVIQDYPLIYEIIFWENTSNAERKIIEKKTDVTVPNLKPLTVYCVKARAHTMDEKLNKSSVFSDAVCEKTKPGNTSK
Test: affinity ranking of expressed humanized 485G10 IgGs (method not named)
For each entry below, report its kon value.
Output spec: scalar in M⁻¹ s⁻¹, unitless text.

Exercise: Give its kon value. Item: 485G10 humanized VH2 + VL1 (antibody, V domains shown, Humanized IgG expressed in HEK293; also called VH2 + VL1 (485G10)) VH: QVQLVQSGAEVKKPGASVKLSCKASGFNIKDYYIHWVKQAPGQGLEWIGRIDPEDAETKYAPKFQGRVTMTADTSISTAYMELSRLRSDDTVVYYCGRYHGYWALDYWGQGTLVTVSS VL: DIQMTQSPSSLSASVGDRVTITCKTSQNVGTNVAWFQQKPGKAPKSLIYSTSYRYSGVPSRFSGSGSGTDFTLTISSLQPEDFATYYCHQYFSYPYTFGPGTKVDIK
Solution: 323000

Exercise: Give its kon value. Item: 485G10 humanized VH0 + VL4 (antibody, V domains shown, Humanized IgG expressed in HEK293; also called VH0 + VL4 (485G10)) VH: QVQLVQSGAEVKKPGASVKVSCKASGFNIKDYYIHWVRQAPGQGLEWMGRIDPEDAETKYAPKFQGRVTMTRDTSISTAYMELSRLRSDDTVVYYCARYHGYWALDYWGQGTLVTVSS VL: DIQMTQSPSSLSTSVGDRVTVTCKTSQNVGTNVAWYQQKPGKAPKPLIYSTSYRYSGVPSRFSGSGSGTDFTLTISSVQPEDFATYYCHQYFSYPYTFGPGTKLDIK
Solution: 255000

Exercise: Give its kon value. Item: 485G10 humanized VH3 + VL1 (antibody, V domains shown, Humanized IgG expressed in HEK293; also called VH3 + VL1 (485G10)) VH: QVQLVQSGAEVKKPGASVKLSCKGSGFNIKDYYIHWVKQAPGQGLEWIGRIDPEDAETKYAPKFQGRATITADTSISTAYLELSRLRSDDTVVYYCGRYHGYWALDYWGQGTLVTVSS VL: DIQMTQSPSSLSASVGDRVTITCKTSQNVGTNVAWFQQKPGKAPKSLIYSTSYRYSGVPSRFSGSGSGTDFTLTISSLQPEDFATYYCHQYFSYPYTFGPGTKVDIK
Solution: 971000

Exercise: Give its kon value. Item: 485G10 humanized VH0 + VL2 (antibody, V domains shown, Humanized IgG expressed in HEK293; also called VH0 + VL2 (485G10)) VH: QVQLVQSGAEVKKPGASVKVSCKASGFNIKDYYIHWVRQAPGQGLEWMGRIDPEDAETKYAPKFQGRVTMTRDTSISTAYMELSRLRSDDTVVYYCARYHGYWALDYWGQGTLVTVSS VL: DIQMTQSPSSLSTSVGDRVTITCKTSQNVGTNVAWYQQKPGKAPKPLIYSTSYRYSGVPSRFSGSGSGTDFTLTISSLQPEDFATYYCHQYFSYPYTFGPGTKVDIK
Solution: 279000

Exercise: Give its kon value. Item: 485G10-H2L3 (antibody, V domains shown, Humanized IgG expressed in HEK293; also called VH2 + VL3 (485G10)) VH: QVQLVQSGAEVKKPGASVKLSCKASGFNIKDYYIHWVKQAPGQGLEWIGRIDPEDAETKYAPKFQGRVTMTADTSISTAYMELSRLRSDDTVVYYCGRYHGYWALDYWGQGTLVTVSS VL: DIQMTQSPSSLSTSVGDRVTITCKTSQNVGTNVAWYQQKPGKAPKPLIYSTSYRYSGVPSRFSGSGSGTDFTLTISSVQPEDFATYYCHQYFSYPYTFGPGTKLDIK
Solution: 281000

Provenance of the data: patent US20200399381A1
